Test system: FB
assay.remarks: Euclidean distance of Cell Painting phenotypic profile (signed KS, 77 features) to DMSO centroid (dimensionless distance); 5 or 10 uM (library dependent); higher = stronger phenotypic change vs DMSO (phenoactivity)
particulars: 48 h
Counter-ions that a name gives are not always drawn.
Catalogue of Euclidean distance readings, one per entry.

- molecule: "Cc1cn([C@@H]2C[C@@H](O)[C@H](CO)O2)c(=O)[nH]c1=O [Telbivudine]"
  Euclidean distance: 1.53
- molecule: "CCCC(=O)Nc1ccc(OCC(O)CNC(C)C)c(C(C)=O)c1 (centres undefined) [Acebutolol HCl]"
  Euclidean distance: 1.3
- molecule: "CCCCC1(COC(=O)CCC(=O)O)C(=O)N(c2ccccc2)N(c2ccccc2)C1=O [Suxibuzone]"
  Euclidean distance: 1.12
- molecule: "O=C1[C@H]2CCCC[C@H]2C(=O)N1CCCCN1CCN(c2nsc3ccccc23)CC1 [Perospirone hydrochloride]"
  Euclidean distance: 1.59
- molecule: "COc1cc(OC)c(NC(=O)Nc2cc(C)on2)cc1Cl"
  Euclidean distance: 0.91
- molecule: "Cc1c(C(=O)Nc2ccc(N3C[C@@H](C)O[C@@H](C)C3)nc2)cccc1-c1ccc(OC(F)(F)F)cc1 [LDE225 (NVP-LDE225.Erismodegib)]"
  Euclidean distance: 0.782
- molecule: "CC1(C)O[C@@H]2C[C@H]3[C@@H]4CCC5=CC(=O)C=C[C@]5(C)[C@H]4[C@@H](O)C[C@]3(C)[C@]2(C(=O)CO)O1 [Desonide]"
  Euclidean distance: 1.55
- molecule: "CCCc1nn(C)c2c(=O)[nH]c(-c3cc(S(=O)(=O)N4CCN(C)CC4)ccc3OCC)nc12 [Sildenafil Mesylate]"
  Euclidean distance: 1
- molecule: "CC[C@H]1OC(=O)[C@H](C)[C@@H](O[C@H]2C[C@@](C)(OC)[C@@H](O)[C@H](C)O2)[C@H](C)[C@@H](O[C@@H]2O[C@H](C)C[C@H](N(C)C)[C@H]2O)[C@](C)(O)C[C@@H](C)/C(=N\\OCOCCOC)[C@H](C)[C@@H](O)[C@]1(C)O [Roxithromycin]"
  Euclidean distance: 1.1

###

Test system: HEPG2
assay.remarks: Euclidean distance of Cell Painting phenotypic profile (signed KS, 77 features) to DMSO centroid (dimensionless distance); 5 or 10 uM (library dependent); higher = stronger phenotypic change vs DMSO (phenoactivity)
particulars: 48 h
Catalogue of Euclidean distance readings, one per entry.
observed.property: Euclidean distance

- molecule: "CC1=C(CC(=O)O)c2cc(F)ccc2/C1=C\\c1ccc([S+](C)[O-])cc1 (configuration not stated)"
  observed.property: "Euclidean distance"
  test.result: 1.5
- molecule: "CCCCCCCCCC(=O)N[C@H]1[C@H](Oc2c3cc4cc2Oc2ccc(cc2Cl)[C@@H](O[C@@H]2O[C@H](CO)[C@@H](O)[C@H](O)[C@H]2NC(C)=O)[C@@H]2NC(=O)[C@H](NC(=O)[C@@H]4NC(=O)[C@H]4NC(=O)[C@@H](Cc5ccc(c(Cl)c5)O3)NC(=O)[C@H](N)c3ccc(O)c(c3)Oc3cc(O)cc4c3)c3ccc(O)c(c3)-c3c(OC4O[C@H](CO)[C@@H](O)[C@H](O)[C@@H]4O)cc(O)cc3[C@@H](C(=O)O)NC2=O)O[C@H](CO)[C@@H](O)[C@@H]1O (some centres not stated)"
  observed.property: "Euclidean distance"
  test.result: 1.39
- molecule: "CCCCCOc1ccc(-c2ccc(-c3ccc(C(=O)N[C@H]4C[C@@H](O)[C@@H](O)NC(=O)[C@@H]5[C@@H](O)[C@@H](C)CN5C(=O)[C@H]([C@@H](C)O)NC(=O)[C@H]([C@H](O)[C@@H](O)c5ccc(O)cc5)NC(=O)[C@@H]5C[C@@H](O)CN5C(=O)[C@H]([C@@H](C)O)NC4=O)cc3)cc2)cc1"
  observed.property: "Euclidean distance"
  test.result: 1.21
- molecule: "Nc1nccs1"
  observed.property: "Euclidean distance"
  test.result: 0.971
- molecule: "CCc1nc(C(N)=O)c(Nc2ccc(N3CCC(N4CCN(C)CC4)CC3)c(OC)c2)nc1NC1CCOCC1"
  observed.property: "Euclidean distance"
  test.result: 3.86
- molecule: "CC(C)Cc1ccc(C(C)C(=O)O)cc1 (configuration not stated) [Ibuprofen]"
  observed.property: "Euclidean distance"
  test.result: 0.86
- molecule: "CC(C)c1cc(C(C)C)c(CC(=O)NS(=O)(=O)Oc2c(C(C)C)cccc2C(C)C)c(C(C)C)c1"
  observed.property: "Euclidean distance"
  test.result: 0.752
- molecule: "C=C(c1ccc(C(=O)O)cc1)c1cc2c(cc1C)C(C)(C)CCC2(C)C"
  observed.property: "Euclidean distance"
  test.result: 1.63
- molecule: "Clc1ccc(COC(Cn2ccnc2)c2ccc(Cl)cc2Cl)cc1 (configuration not stated)"
  observed.property: "Euclidean distance"
  test.result: 1.09
- molecule: "C#C[C@]1(O)CC[C@H]2[C@@H]3CCC4=Cc5oncc5C[C@]4(C)[C@H]3CC[C@@]21C"
  observed.property: "Euclidean distance"
  test.result: 1.3
- molecule: "Cc1cc(C)c(Nc2ccnc(Nc3ccc(C#N)cc3)n2)c(C)c1"
  observed.property: "Euclidean distance"
  test.result: 3.09
- molecule: "CCCCOC(=O)c1ccccc1Nc1cccc(C(F)(F)F)c1 [Ufenamate]"
  observed.property: "Euclidean distance"
  test.result: 0.931
- molecule: "COc1ccc(Cn2ccc3ccc(C(=O)NO)cc32)cc1"
  observed.property: "Euclidean distance"
  test.result: 1.5
- molecule: "COC(=O)N(C)c1c(N)nc(-c2nn(Cc3ccccc3F)c3ncccc23)nc1N"
  observed.property: "Euclidean distance"
  test.result: 0.598
- molecule: "CN(C)c1ccc2nc3ccc(=[N+](C)C)cc-3sc2c1"
  observed.property: "Euclidean distance"
  test.result: 2.63
- molecule: "N#Cc1c(O)c2c(-c3ccc(-c4ccccc4O)cc3)csc2[nH]c1=O"
  observed.property: "Euclidean distance"
  test.result: 0.746
- molecule: "CCOc1cc2ncc(C#N)c(Nc3ccc(OCc4ccccn4)c(Cl)c3)c2cc1NC(=O)/C=C/CN(C)C"
  observed.property: "Euclidean distance"
  test.result: 0.96
